Tested on: indomethacin-induced ulcers
PROCEDURE TEXT: Indomethacin-induced ulcers (indomethacin ulcer preventing effect)
Format: in vivo, male rats of the Crj : Wistar strain
CONDITION DETAILS: Rattus norvegicus; indomethacin ulcer, rats, oral, dosage 3 mg/kg; read-out: Inhibition factor (%)
MEASURE: inhibition at 3 mg/kg

> print(dat)
                                   compound  assay.value
1  CCCCCC(=O)CC[C@H]1[C@H](O)CC(=O)[C@@H]1C/C=C\CCCC(=O)OCC        42.9%
2  CCCCCC(=O)CC[C@H]1[C@H](O)CC(=O)[C@@H]1CC(=O)CCCCC(=O)OCC [(9)]        50.5%
3  CCCCCC(=O)CC[C@H]1[C@H](O)CC(=O)[C@@H]1C/C=C\CCCC(=O)OC          30%
4  CCCCCC(=O)CC[C@H]1[C@H](O)CC(=O)[C@@H]1CC(=O)CCCCC(=O)OCC (racemic) [(11)]           0%
5  CCCCCC(=O)CC[C@H]1[C@H](O)CC(=O)[C@@H]1CC(=O)CCCCC(=O)OC        42.9%

----------
Test system: confinement-stress induced ulcers through immersion in water
PROCEDURE TEXT: Confinement-stress induced ulcers through immersion in water (hydrorestraint stress ulcer preventing effect)
Type: in vivo, male rats of the Crj : Wistar strain
CONDITION DETAILS: Rattus norvegicus; stress ulcer, rats, oral, dosage 3 mg/kg; read-out: Inhibition factor (%)
I would appreciate it if you labelled entries Fulfilled when inhibition at 3 mg/kg is 60% or higher, otherwise Not fulfilled.

> print(dat)
                                   compound  class.assignment
1  CCCCCCC(=O)CC[C@H]1[C@H](O)CC(=O)[C@@H]1CC(=O)CCCCC(=O)OCC     Not fulfilled
2  CCCCCC(=O)CC[C@H]1[C@H](C)CC(=O)[C@@H]1CC(=O)CCCCC(=O)OC         Fulfilled
3  CCCCCC(=O)CC[C@H]1[C@H](O)CC(=O)[C@@H]1CCCCCCC(=O)OC     Not fulfilled
4  CCCCCC(=O)CC[C@H]1[C@H](O)CC(=O)[C@@H]1CC(=O)CCCCC(=O)OCC (racemic)     Not fulfilled
5  CCCCCC(=O)CC[C@H]1[C@H](C)CC(=O)[C@@H]1CC(=O)CCCCC(=O)OCC         Fulfilled
6  CCCCCC(=O)CC[C@H]1[C@H](O)CC(=O)[C@@H]1CC(=O)CCCCC(=O)OCCCC         Fulfilled
7  CCCCCC(=O)CC[C@H]1[C@H](O)CC(=O)[C@@H]1CCCCCCC(=O)OCC     Not fulfilled
8  CCCCCC(=O)CC[C@H]1[C@H](O)CC(=O)[C@@H]1C/C=C\CCCC(=O)OCC         Fulfilled

Just for reference, patent EP0284180A1 is where these values come from.
